The following compounds are listed with their measured growth inhibition values.
Assay: NCI Yeast Anticancer Drug Screen. Data for the rad14 strain (AID 159);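 further: 0% = growth of vehicle-treated control cultures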
Settings: S. cerevisiae rad14 strain growth inhibition; at 100.0 µM; hits give high values
This is part of a sample that, as a whole, favours compounds with a hit. Of some 79,000 tested, about 15% had one in any assay.

[
  {
    "COMPOUND": "CN(C)Cc1cc(N=Nc2ccc(Cl)cc2)cc(CN(C)C)c1O",
    "UNIT_ABBREVIATION": "%",
    "growth inhibition": 34
  },
  {
    "COMPOUND": "CC(CC(C)(C)[N+](C)(C)C)[N+](C)(C)C (stereo unspecified)",
    "UNIT_ABBREVIATION": "%",
    "growth inhibition": 1
  },
  {
    "COMPOUND": "CC(=O)Oc1cc(-c2cc(OC(C)=O)c(OC(C)=O)c3ccccc23)c2ccccc2c1OC(C)=O",
    "UNIT_ABBREVIATION": "%",
    "growth inhibition": 95
  },
  {
    "COMPOUND": "Cc1ccc(C2C(Cl)C(=O)N2n2cnc3ccccc3c2=O)cc1 (stereo unspecified)",
    "UNIT_ABBREVIATION": "%",
    "growth inhibition": -4
  },
  {
    "COMPOUND": "O=[N+]([O-])C(=C(Sc1ccccc1)Sc1ccccc1)C(Cl)=C(Cl)Cl",
    "UNIT_ABBREVIATION": "%",
    "growth inhibition": 28
  },
  {
    "COMPOUND": "c1ccc2c(c1)sc1nc3ccncc3nc12",
    "UNIT_ABBREVIATION": "%",
    "growth inhibition": 29
  },
  {
    "COMPOUND": "CN(C)C[C@H]1CC[C@@H](CN(C)C)C1=O",
    "UNIT_ABBREVIATION": "%",
    "growth inhibition": 52
  },
  {
    "COMPOUND": "CCCCN1C(=O)N(c2ccc(OCC)cc2)C2N(CCCC)C1C(C)(C)C2(C)C (stereo unspecified)",
    "UNIT_ABBREVIATION": "%",
    "growth inhibition": 72
  },
  {
    "COMPOUND": "c1ccc2c(c1)sc1cc3ccncc3cc12",
    "UNIT_ABBREVIATION": "%",
    "growth inhibition": 97
  },
  {
    "COMPOUND": "COc1ccc2ccc3ccccc3c2c1C=O",
    "UNIT_ABBREVIATION": "%",
    "growth inhibition": 83
  },
  {
    "COMPOUND": "FC(F)(F)c1cc(NC(=S)N2c3ccccc3-n3cccc3C2c2cccnc2)cc(C(F)(F)F)c1 (stereo unspecified)",
    "UNIT_ABBREVIATION": "%",
    "growth inhibition": -5
  }
]
